method.description: Organ distribution and brain pharmacokinetic study
Assay type: in vivo, Swiss albino mice
condition.set: Swiss albino, mouse, brain, inhaled or intranasal, 0.5 mg/kg
result.type: Cmax (ng/mL)

INSERT INTO assay_data (input_smiles, result_type, data_value) VALUES
  ('O=C1O[C@H]([C@@H](O)CO)C(O)=C1O', 'Cmax', 855);

* * *

method.description: Organ distribution and brain pharmacokinetic study
Assay type: in vivo, Swiss albino mice
condition.set: Swiss albino, mouse, brain, inhaled or intranasal, 0.5 mg/kg
result.type: MRT last (h)

INSERT INTO measurements (compound, result_type, unit_string, data_value) VALUES
  ('O=C1O[C@H]([C@@H](O)CO)C(O)=C1O [AA, ascorbic acid]', 'MRT last', 'h', 1.98);

* * *

method.description: Organ distribution and brain pharmacokinetic study
Assay type: in vivo, Swiss albino mice
condition.set: Swiss albino, mouse, brain, inhaled or intranasal, 0.5 mg/kg
result.type: Tmax (h)

INSERT INTO measurements (input_smiles, unit_string, data_value) VALUES
  ('O=C1O[C@H]([C@@H](O)CO)C(O)=C1O', 'h', 2.12);

* * *

method.description: Organ distribution and brain pharmacokinetic study
Assay type: in vivo, Swiss albino mice
condition.set: Swiss albino, mouse, brain, inhaled or intranasal, 0.5 mg/kg
result.type: AUC(0-t) (ng·h/mL)

INSERT INTO assay_data (input_smiles, result_type, data_value) VALUES
  ('O=C1O[C@H]([C@@H](O)CO)C(O)=C1O', 'AUC(0-t)', 1060);
